Target: T1, MET Proto-Oncogene, Receptor Tyrosine Kinase (MET), on cells (human, UniProt P08581 25-1390)
T1 construct: also called cMET; c-Met
T1 sequence (P08581 25-1390): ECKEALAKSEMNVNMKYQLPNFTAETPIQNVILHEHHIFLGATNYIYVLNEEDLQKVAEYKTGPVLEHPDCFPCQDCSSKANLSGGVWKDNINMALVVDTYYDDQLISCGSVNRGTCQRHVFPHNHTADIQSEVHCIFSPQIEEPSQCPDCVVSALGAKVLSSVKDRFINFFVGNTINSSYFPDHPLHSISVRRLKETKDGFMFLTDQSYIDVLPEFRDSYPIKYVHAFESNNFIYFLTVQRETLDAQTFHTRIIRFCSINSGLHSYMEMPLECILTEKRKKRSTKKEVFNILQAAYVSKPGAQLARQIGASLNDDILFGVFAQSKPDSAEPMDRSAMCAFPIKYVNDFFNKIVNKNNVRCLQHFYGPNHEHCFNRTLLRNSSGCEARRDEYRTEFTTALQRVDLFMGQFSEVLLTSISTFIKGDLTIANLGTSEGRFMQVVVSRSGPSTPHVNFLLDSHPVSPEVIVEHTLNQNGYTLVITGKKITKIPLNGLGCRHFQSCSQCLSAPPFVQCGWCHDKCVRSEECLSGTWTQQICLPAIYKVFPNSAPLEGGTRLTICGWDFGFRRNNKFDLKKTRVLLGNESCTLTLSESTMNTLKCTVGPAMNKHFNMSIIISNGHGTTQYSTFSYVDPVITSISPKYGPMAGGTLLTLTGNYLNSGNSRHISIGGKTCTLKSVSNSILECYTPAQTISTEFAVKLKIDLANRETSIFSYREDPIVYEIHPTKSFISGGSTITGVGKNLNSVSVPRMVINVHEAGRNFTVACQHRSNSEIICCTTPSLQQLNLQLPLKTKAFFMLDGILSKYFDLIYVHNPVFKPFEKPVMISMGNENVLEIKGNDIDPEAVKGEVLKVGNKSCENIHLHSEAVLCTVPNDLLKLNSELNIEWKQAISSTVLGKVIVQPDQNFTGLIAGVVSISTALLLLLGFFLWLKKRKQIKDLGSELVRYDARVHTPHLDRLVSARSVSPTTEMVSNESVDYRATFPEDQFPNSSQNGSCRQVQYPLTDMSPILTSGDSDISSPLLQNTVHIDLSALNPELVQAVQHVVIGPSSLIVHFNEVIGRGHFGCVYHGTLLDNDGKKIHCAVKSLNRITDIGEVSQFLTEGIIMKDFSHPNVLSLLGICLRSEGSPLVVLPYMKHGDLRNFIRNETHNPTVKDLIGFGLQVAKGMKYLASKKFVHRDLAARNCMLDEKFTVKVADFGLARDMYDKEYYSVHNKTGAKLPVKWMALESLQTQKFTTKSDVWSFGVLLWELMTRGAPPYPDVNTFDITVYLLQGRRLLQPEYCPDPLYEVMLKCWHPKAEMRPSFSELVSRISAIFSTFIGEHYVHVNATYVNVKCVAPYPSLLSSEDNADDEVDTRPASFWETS
Experiment: flow cytometry titration on HUVEC cells (8k/cell), pH 7.4; printed as Affinity at pH 7.4
Recorded Kd for the following binders

Binder: MYT4837 (antibody, V domains shown, Emibetuzumab variant) VH: QVQLVQSGAEVKKPGASVKVSCKASGYTFTHYYMHWVRQAPGQGLEWMGRVNPHRRHTTYNQKFEGRVTMTTDTSTSTAYMELRSLRSDDTAVYYCARANWLDYWGQGTTVTVSS VL: DIQMTQSPSSLSASVGDRVTITCSVSSSVSSIYLHWYQQKPGKAPKLLIYSTSNLASGVPSRFSGSGSGTDFTLTISSLQPEDFATYYCQVYSGYPLTFGGGTKVEIKR
Kd: > 100 nM
//
Binder: MYT5309 (antibody, V domains shown, Emibetuzumab variant) VH: QVQLVQSGAEVKKPGASVKVSCKASGYTFTHYYMHWVRQAPGQGLEWMGRVNPNRRGTTYNQKFEGRVTMTTDTSTSTAYMELRSLRSDDTAVYYCARANWLDYWGQGTTVTVSS VL: DIQMTQSPSSLSASVGDRVTITCSVSSSVSSIYLHWYQQKPGKAPKLLIYSTSNLASGVPSRFSGSGSGTDFTLTISSLQPEDFATYYCQHYSGYPLTFGGGTKVEIKR
Kd: > 200 nM

Now for another entry.
Value of measured Kd for the entry MYT5351 (antibody, V domains shown, P3D12 variant) VH: QVQLVQSGAEVKKPGASVKVSCKASGYTFTSYWMHWVKQAPGQGLDWIGHIKPSTDNTEYNQKFKDKATLTADKSTSTAYMELSSLRSEDTAVYYCARSYGNYPLMDYWGQGTTVTVSS VL: QIVLTQSPAILSLSPGERATLSCSASSSVTSNYLYWYQQKPGSSPKLLIYSHSNLASGVPARFSGSGSGTSYTLTISSLEAEDAASYFCHQWSSYPPTFGSGTKLEIKR : > 100 nM
